- SYSTEM TESTED: KOR (Homo sapiens)
- Sequence (P41145 whole entry): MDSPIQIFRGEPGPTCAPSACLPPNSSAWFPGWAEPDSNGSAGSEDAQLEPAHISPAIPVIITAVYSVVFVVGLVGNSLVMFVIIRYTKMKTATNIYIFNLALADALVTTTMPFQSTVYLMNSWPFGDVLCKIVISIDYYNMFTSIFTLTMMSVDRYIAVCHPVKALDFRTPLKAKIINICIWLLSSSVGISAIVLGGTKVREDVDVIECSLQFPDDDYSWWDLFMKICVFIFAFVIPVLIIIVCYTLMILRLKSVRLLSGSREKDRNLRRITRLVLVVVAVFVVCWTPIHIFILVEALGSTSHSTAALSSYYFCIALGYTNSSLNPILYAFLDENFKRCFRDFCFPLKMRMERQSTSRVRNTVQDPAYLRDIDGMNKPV
OBSERVED PROPERTY: Ki (nM)
Hi! Could you send only the number? It should be in nM, unit omitted.

Q: Which Ki value is on record for COC(=O)C1=CC23CCCCC2C2CC(c4cccc(C)n4)C(C)(O3)C12 (stereo not shown) ?
Ans: 29.5

----------
- SYSTEM TESTED: KOR (Homo sapiens)
- PROTOCOL NOTES: Inhibition of forskolin-stimulated cAMP accumulation (KOR agonism, HTRF)
- CONDITION PARAMETERS: inhibition of forskolin-stimulated cAMP accumulation, Figure 4 and text
OBSERVED PROPERTY: EC50 (nM)
Hi! Could you send only the number? It should be in nM, unit omitted.

Q: Which EC50 value is on record for COC(=O)C1=CC23CCCCC2C2CC(c4cccc(C)n4)C(C)(O3)C12 (stereo not shown) ?
Ans: 476
